These measurements were taken from paper PMC5733478.

Recorded measurements of % 25 nM CA200645 binding, one per entry
- SYSTEM: human A3AR (Homo sapiens, UniProt P0DMS8)
- Construct: expressed in transfected cells
- Sequence (P0DMS8 whole entry): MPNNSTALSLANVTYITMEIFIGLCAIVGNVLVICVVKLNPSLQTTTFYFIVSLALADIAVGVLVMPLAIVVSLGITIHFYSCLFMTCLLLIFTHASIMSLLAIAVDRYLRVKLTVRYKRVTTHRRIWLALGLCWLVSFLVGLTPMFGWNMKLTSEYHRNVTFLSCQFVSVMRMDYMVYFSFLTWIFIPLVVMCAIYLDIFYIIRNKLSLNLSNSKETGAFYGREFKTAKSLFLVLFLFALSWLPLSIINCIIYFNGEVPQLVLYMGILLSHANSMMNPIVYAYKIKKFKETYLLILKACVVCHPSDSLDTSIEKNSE
- ASSAY: LOPAC library primary screen: single concentration (10 μM) inhibition of 25 nM CA200645 binding, PHERAstar FS
Report the value in % with no unit label.

{"COMPOUND": "CC[N+](CC)(CC)CCOc1cccc(OCC[N+](CC)(CC)CC)c1OCC[N+](CC)(CC)CC [Gallamine triethiodide]", "SYSTEM": "human A3AR (Homo sapiens, UniProt P0DMS8)", "% 25 nM CA200645 binding, %": 78.3}
{"COMPOUND": "CC(=O)S[C@@H]1CC2=CC(=O)CC[C@]2(C)[C@H]2CC[C@@]3(C)[C@@H](CC[C@@]34CCC(=O)O4)[C@H]12", "SYSTEM": "human A3AR (Homo sapiens, UniProt P0DMS8)", "% 25 nM CA200645 binding, %": 94.5}
{"COMPOUND": "CC(=O)[C@]1(O)Cc2c(O)c3c(c(O)c2[C@@H](O[C@H]2C[C@H](N)[C@H](O)[C@H](C)O2)C1)C(=O)c1ccccc1C3=O", "SYSTEM": "human A3AR (Homo sapiens, UniProt P0DMS8)", "% 25 nM CA200645 binding, %": 95.1}

Next item in the queue.
Entry COC(=O)[C@@H](N)Cc1ccc(O)c(O)c1.Cl needs its % 25 nM CA200645 binding filled in; supply it.
98.6
